Listing of entries alongside the reported AUC(0-t).
Test: Pharmacokinetic evaluation in mice
Format: in vivo, CD1 female mice
Settings: female, CD1, mouse, plasma, IV 2 mg/kg, read-out: AUC0-24
Hi! Could you send only the number? It should be in ng·h/mL, unit omitted.

CCc1c(N2CCN(C(=O)c3ncnc(C)c3O)CC2)c(=O)n2nc(C3=CCOCC3)nc2n1CC(=O)Nc1ccc(Br)c2ccsc12 [Compound H15] : 655

Next item in the queue.
Noted for CCc1c(N2CCN(C(=O)c3ncnc(C)c3O)CC2)c(=O)n2nc(C3=CCOCC3)nc2n1CC(=O)Nc1ccc(C(F)(F)F)c2sccc12 [Compound H13] : its AUC(0-t) reads 722

* * *

Listing of entries alongside the reported Tmax.
Assay: Pharmacokinetic evaluation in mice
Format: in vivo, CD1 female mice
Conditions: female, CD1, mouse, plasma, PO 10 mg/kg, read-out: Tmax
Enter the number, and then the unit.

CCc1c(N2CCN(C(=O)c3ncnc(C)c3O)CC2)c(=O)n2nc(C3=CCOCC3)nc2n1CC(=O)Nc1ccc(Br)c2ccsc12 : 15 min

Next item in the queue.
Noted for CCc1c(N2CCN(C(=O)c3ncnc(C)c3O)CC2)c(=O)n2nc(C3=CCOCC3)nc2n1CC(=O)Nc1ccc(C(F)(F)F)c2sccc12 : its Tmax reads 30 min

* * *

Assay: Pharmacokinetic evaluation in mice
Type: in vivo, CD1 female mice
Conditions: female, CD1, mouse, plasma, PO 10 mg/kg, read-out: Cmax
Measured parameter: Cmax (ng/mL)
Hi! Could you send only the number? It should be in ng/mL, unit omitted.

CCc1c(N2CCN(C(=O)c3ncnc(C)c3O)CC2)c(=O)n2nc(C3=CCOCC3)nc2n1CC(=O)Nc1ccc(Br)c2ccsc12 : 693

Next item in the queue.
Noted for CCc1c(N2CCN(C(=O)c3ncnc(C)c3O)CC2)c(=O)n2nc(C3=CCOCC3)nc2n1CC(=O)Nc1ccc(C(F)(F)F)c2sccc12 : its Cmax reads 551

* * *

Listing of entries alongside the reported C0.
Assay: Pharmacokinetic evaluation in mice
Assay type: in vivo, CD1 female mice
Details: female, CD1, mouse, plasma, IV 2 mg/kg, read-out: C0
Enter the number, and then the unit.

CCc1c(N2CCN(C(=O)c3ncnc(C)c3O)CC2)c(=O)n2nc(C3=CCOCC3)nc2n1CC(=O)Nc1ccc(Br)c2ccsc12 [Compound H15] : 1740 ng/mL

Next item in the queue.
Noted for CCc1c(N2CCN(C(=O)c3ncnc(C)c3O)CC2)c(=O)n2nc(C3=CCOCC3)nc2n1CC(=O)Nc1ccc(C(F)(F)F)c2sccc12 [Compound H13] : its C0 reads 2530 ng/mL

* * *

System: MSI-H colorectal cancer SW48 cell line
Assay: 2D anti-proliferative activity, MSI-H SW48 cells (CTG, 5 days)
Type: cell-based
Details: Homo sapiens, 120 h, 5 days
Listing of entries alongside the reported IC50.
Hi! Could you send only the number? It should be in nM, unit omitted.

CCc1c(N2CCN(C(=O)c3ncnc(C)c3O)CC2)c(=O)n2nc(C3=CCOCC3)nc2n1CC(=O)Nc1ccc(Cl)c2ccoc12 : 137
CCc1c(N2CCN(C(=O)c3ncnc(C)c3O)CC2)c(=O)n2nc(C3=CCOCC3)nc2n1CC(=O)Nc1ccc2c3c1ccn3CCC2 : 474
CCc1c(N2CCN(C(=O)c3ncnc(C)c3O)C[C@@H]2C)c(=O)n2nc(C3=CCOCC3)nc2n1CC(=O)Nc1ccc(C(F)(F)F)c2ccsc12 : 123
CCc1c(N2CCN(C(=O)c3nccc(F)c3O)CC2)c(=O)n2nc(C3=CCOCC3)nc2n1CC(=O)Nc1ccc(C(F)(F)F)c2ccsc12 : 75
CCc1c(N2CCN(C(=O)c3ncccc3O)CC2)c(=O)n2nc(N3CCOCC3)nc2n1CC(=O)Nc1ccc(C(F)(F)F)c2ccsc12 : 193

Noted for CCc1c(N2CCN(C(=O)c3ncnc(C)c3O)CC2)c(=O)n2nc(C3=CCOCC3)nc2n1CC(=O)Nc1ccc(C(F)(F)F)cc1SC : its IC50 reads 2560

* * *

Target: WRN helicase (Homo sapiens, UniProt Q14191)
Sequence (Q14191 whole entry): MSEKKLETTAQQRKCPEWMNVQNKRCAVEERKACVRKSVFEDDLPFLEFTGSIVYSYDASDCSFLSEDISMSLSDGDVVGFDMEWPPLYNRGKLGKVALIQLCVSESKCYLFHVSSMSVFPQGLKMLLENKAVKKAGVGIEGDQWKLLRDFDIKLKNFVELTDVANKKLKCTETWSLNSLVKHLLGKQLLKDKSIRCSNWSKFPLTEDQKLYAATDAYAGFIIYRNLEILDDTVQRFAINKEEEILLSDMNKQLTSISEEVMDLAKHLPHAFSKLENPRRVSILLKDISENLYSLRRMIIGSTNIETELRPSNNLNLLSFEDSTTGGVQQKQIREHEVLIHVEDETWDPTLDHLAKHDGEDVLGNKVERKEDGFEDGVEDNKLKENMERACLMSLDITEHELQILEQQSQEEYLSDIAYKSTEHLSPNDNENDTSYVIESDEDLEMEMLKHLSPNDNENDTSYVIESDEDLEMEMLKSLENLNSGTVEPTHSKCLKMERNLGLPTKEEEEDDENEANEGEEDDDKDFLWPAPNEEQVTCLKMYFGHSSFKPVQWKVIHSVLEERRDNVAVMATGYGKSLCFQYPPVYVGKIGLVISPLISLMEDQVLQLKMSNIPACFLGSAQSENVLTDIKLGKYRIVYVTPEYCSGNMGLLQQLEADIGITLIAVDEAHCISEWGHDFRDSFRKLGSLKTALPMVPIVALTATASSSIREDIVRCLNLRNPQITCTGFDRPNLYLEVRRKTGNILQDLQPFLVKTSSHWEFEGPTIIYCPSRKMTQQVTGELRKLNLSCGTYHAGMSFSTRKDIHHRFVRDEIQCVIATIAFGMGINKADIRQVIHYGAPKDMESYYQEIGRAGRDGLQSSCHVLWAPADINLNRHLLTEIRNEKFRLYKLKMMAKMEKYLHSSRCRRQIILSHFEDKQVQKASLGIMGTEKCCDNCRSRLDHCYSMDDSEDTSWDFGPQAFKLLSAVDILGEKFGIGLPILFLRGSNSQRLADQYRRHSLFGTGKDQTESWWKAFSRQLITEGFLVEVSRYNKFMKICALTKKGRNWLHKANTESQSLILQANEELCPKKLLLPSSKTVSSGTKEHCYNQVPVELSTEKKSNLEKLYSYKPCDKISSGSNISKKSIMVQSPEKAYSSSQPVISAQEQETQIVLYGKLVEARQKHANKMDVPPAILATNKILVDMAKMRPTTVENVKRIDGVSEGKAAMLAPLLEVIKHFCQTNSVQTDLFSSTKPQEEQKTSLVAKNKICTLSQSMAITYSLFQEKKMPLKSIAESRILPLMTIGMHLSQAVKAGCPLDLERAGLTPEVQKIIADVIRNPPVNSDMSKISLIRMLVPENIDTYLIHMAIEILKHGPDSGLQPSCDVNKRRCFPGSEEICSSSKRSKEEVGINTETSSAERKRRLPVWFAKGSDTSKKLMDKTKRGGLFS
Assay: WRN helicase hydrolysis/unwinding of double-stranded DNA (fluorescence)
Type: biochemical
Protocol: The activity of the molecules of the present disclosure on the hydrolysis of double-stranded PP-6TR DNA by WRN helicase was tested. The working solution and buffer were prepared, and the test compound was dissolved in DMSO followed by a4-fold dilution (with a final concentration of 10 μM as the starting concentration). […] The inhibitory activity (IC50) against the WRN enzyme was calculated based on the fluorescence change (Ex530/Em590) between the blank group (DMSO) and the compound group.
Listing of entries alongside the reported log10 of IC50.
Record value = log10 of IC50 given in nM.

Noted for CCc1c(N2CCN(C(=O)c3ncnc(C)c3O)CC2)c(=O)n2nc(C3=CCOCC3)nc2n1CC(=O)Nc1ccc(C(F)(F)F)c2sccc12 : its log10 of IC50 reads 0.08

Noted for CCc1c(N2CCN(C(=O)c3ncccc3O)CC2)c(=O)n2nc(C3=CCC(OC)CC3)nc2n1CC(=O)Nc1ccc(C(F)(F)F)c2ccsc12 (stereo not drawn) : its log10 of IC50 reads 0.11

Noted for CCc1c(N2CCN(C(=O)c3ncnc(C)c3O)CC2)c(=O)n2nc(C3=CCOCC3)nc2n1CC(=O)Nc1ccc(C(F)(F)F)c2ccsc12 : its log10 of IC50 reads 0.18

Noted for CCc1c(N2CCN(C(=O)c3ncnc(C)c3O)CC2)c(=O)n2nc(C3=CCOCC3)nc2n1CC(=O)Nc1ccc(C(F)(F)F)c2ncsc12 : its log10 of IC50 reads 0.59

Noted for CCc1c(N2CC3(CN(C(=O)c4ncnc(C)c4O)C3)C2)c(=O)n2nc(C3=CCOCC3)nc2n1CC(=O)Nc1ccc(C(F)(F)F)cc1Cl [Compound P1] : its log10 of IC50 reads 3.59

Noted for CCc1c(N2CCN(C(=O)c3ncnc(C)c3O)CC2)c(=O)n2nc(C3=CCOCC3)nc2n1CC(=O)Nc1ccc(C(F)(F)F)c2ccoc12 : its log10 of IC50 reads 0.15

Noted for CCc1c(N2CCN(C(=O)c3ncccc3O)CC2)c(=O)n2nc(-c3cccs3)nc2n1CC(=O)Nc1ccc(C(F)(F)F)cc1Cl : its log10 of IC50 reads 0.28

Noted for CCc1c(N2CCN(C(=O)c3ncccc3O)CC2)c(=O)n2nc(N3CCC[C@H](F)C3)nc2n1CC(=O)Nc1ccc(C(F)(F)F)c2ccsc12 : its log10 of IC50 reads 0.38

Noted for CCc1c(N2CCN(C(=O)c3nccc(F)c3O)CC2)c(=O)n2nc(C3=CCOCC3)nc2n1CC(=O)Nc1ccc(C(F)(F)F)c2ccsc12 : its log10 of IC50 reads 0.00

* * *

Listing of entries alongside the reported log10(IC50).
Test system: MSI-H colorectal cancer SW48 cell line
Assay: 2D anti-proliferative activity, MSI-H SW48 cells (CTG, 5 days)
Type: cell-based
Settings: Homo sapiens, 120 h, 5 days
Record value = log10 of IC50 given in nM.

CCc1c(N2CCN(C(=O)c3ncccc3O)CC2)c(=O)n2nc(-c3cncs3)nc2n1CC(=O)Nc1ccc(C(F)(F)F)cc1Cl : 2.28
CCc1c(N2CCN(C(=O)c3ncnc(C)c3O)CC2)c(=O)n2nc(C3=CCOCC3)nc2n1CC(=O)Nc1ccc(Br)c2ccoc12 : 2.10
CCc1c(N2CCN(C(=O)c3ncnc(C)c3O)CC2)c(=O)n2nc(C3=CCOCC3)nc2n1CC(=O)Nc1ccc(C(F)(F)F)c2ccoc12 : 1.67
CCc1c(N2CCN(C(=O)c3ncccc3O)CC2)c(=O)n2nc(C3=CCOCC3)nc2n1CC(=O)NC12CC(C(F)(F)F)(C1)C2 [Compound A2, reference compound] : 3.40
CCc1c(N2CCN(C(=O)c3ncccc3O)CC2)c(=O)n2nc(C3=CCOCC3)nc2n1CC(=O)Nc1ccc(C(F)(F)F)c2ccsc12 : 2.12

Noted for CCc1c(N2CCN(C(=O)c3ncnc(C)c3O)CC2)c(=O)n2nc(C3=CCOCC3)nc2n1CC(=O)Nc1ccc(Br)c2ccsc12 : its log10(IC50) reads 2.00

Noted for CCc1c(N2CCN(C(=O)c3ncccc3O)CC2)c(=O)n2nc(N3CCC[C@H](F)C3)nc2n1CC(=O)Nc1ccc(C(F)(F)F)c2ccsc12 : its log10(IC50) reads 3.06

Noted for CCc1c(N2CCN(C(=O)c3ncnc(C)c3O)CC2)c(=O)n2nc(C3=CCOCC3)nc2n1CC(=O)Nc1ccc(C(F)(F)F)c2ncsc12 : its log10(IC50) reads 3.34

Noted for CCc1c(N2CCN(C(=O)c3ncccc3O)CC2)c(=O)n2nc(-c3cccnc3)nc2n1CC(=O)Nc1ccc(C(F)(F)F)cc1C [Compound A1, reference compound] : its log10(IC50) reads 2.42

Noted for CCc1c(N2CCN(C(=O)c3ncccc3O)CC2)c(=O)n2nc(C3=CCC(OC)CC3)nc2n1CC(=O)Nc1ccc(C(F)(F)F)c2ccsc12 (stereo not shown) : its log10(IC50) reads 2.09

Noted for CCc1c(N2CCN(C(=O)c3ncccc3O)CC2)c(=O)n2nc(C3=CCOCC3)nc2n1CC(=O)Nc1ccc(C(F)(F)F)c2c1OCCO2 : its log10(IC50) reads 3.29

Noted for CCc1c(N2CCN(C(=O)c3ncnc(C)c3O)CC2)c(=O)n2nc(C3=CCOCC3)nc2n1CC(=O)Nc1ccc(C(F)(F)F)c2scnc12 : its log10(IC50) reads 2.24

Noted for CCc1c(N2CCN(C(=O)c3ncnc(C)c3O)CC2)c(=O)n2nc(C3=CCOCC3)nc2n1CC(=O)Nc1ccc(C(F)(F)F)c2sccc12 : its log10(IC50) reads 1.45

Noted for CCc1c(N2CCN(C(=O)c3nccc(Cl)c3O)CC2)c(=O)n2nc(C3=CCOCC3)nc2n1CC(=O)Nc1ccc(C(F)(F)F)c2ccsc12 : its log10(IC50) reads 2.10

Noted for CCc1c(N2CCN(C(=O)c3ncnc(C)c3O)CC2)c(=O)n2nc(C3=CCC(OC)CC3)nc2n1CC(=O)Nc1ccc(C(F)(F)F)c2ccsc12 (stereo not shown) : its log10(IC50) reads 2.10
